B1: SOAT1 (parent)
chain: VYYIFERLCAPLFRNIKQEPFSAR

- Variants of: B1
- test method notes: protein stability index of a GFP-peptide fusion (GPS, HEK-293T) (PSI 1-6); higher = more stable;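 also: lentivirally expressed fusions sorted by FACS into six bins by GFP to DsRed ratio, PSI derived from sequencing read proportions per bin multiplied by bin number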
- condition set: c terminus: a fixed tail appended
Quick rule for you: protein stability index at 2 or higher means 1.0, lower means 0.0.

Worked examples follow.
R24E | 1.0
Q18K | 0.0
E19N | 0.0
F13T | 1.0

Reported protein stability index reaches at least 2 for `N15K` ?
1.0

Reported protein stability index reaches at least 2 for `Y3N` ?
1.0

Reported protein stability index reaches at least 2 for `K17I` ?
0.0

Reported protein stability index reaches at least 2 for `F21H` ?
0.0

Reported protein stability index reaches at least 2 for `S22M` ?
1.0

Reported protein stability index reaches at least 2 for `P20T` ?
1.0

Reported protein stability index reaches at least 2 for `V1F` ?
1.0

These measurements were taken from the supplement of paper PMC10567573.
